test_target: EhiCA (β-carbonic anhydrase) (Entamoeba histolytica, UniProt C4LXK3)
Sequence (C4LXK3 1-188): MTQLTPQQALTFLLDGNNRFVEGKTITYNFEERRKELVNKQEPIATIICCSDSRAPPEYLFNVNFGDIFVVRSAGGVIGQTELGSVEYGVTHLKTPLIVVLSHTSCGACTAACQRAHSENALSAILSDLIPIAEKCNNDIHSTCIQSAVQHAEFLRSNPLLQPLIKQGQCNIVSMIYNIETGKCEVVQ
assay_notes: biochemical
outcome_measure: Ki (nM)

a = NS(=O)(=O)c1cc(Cl)c(Cl)c(S(N)(=O)=O)c1 [DCP, dichlorophenamide]
b = NS(=O)(=O)c1ccc(C(=O)O)cc1 [Compound 18, 4-carboxy-benzenesulfonamide]
c = Nc1ccc(S(N)(=O)=O)cc1
Sort the entries above by Ki, smallest first. A ranking is expressed here by listing the labels in the requested order.
b, a, c
(b: 383 nM, a: 790 nM, c: 6010 nM)
